assay: pKa of compound 1 (previously determined); format: physicochemical
readout: pKa
Answers are plain numbers.

[ask] What value of pKa has been reported for the following compound? "O=C(CC(c1ccccc1)c1ccccc1)N1CCN(C(c2ccccc2)c2ccccc2)CC1"
[reply] 5.4

###

test: Caco-2 apparent intestinal permeability; format: in vitro ADME; conditions: human, Caco-2, pH 7.4, B-to-A; 1 μM; read-out: Papp, replicates R1-R3
readout: Papp B→A at 60 min, 1 μM (×10⁻⁶ cm/s)
Answers are plain numbers, in ×10⁻⁶ cm/s.

[ask] What value of Papp B→A at 60 min, 1 μM has been reported for the following molecule? "O=C(CC(c1ccccc1)c1ccccc1)N1CCN(C(c2ccccc2)c2ccccc2)CC1"
[reply] 5.04
